test system: Klebsiella pneumoniae; conditions: Concentration 20 uM; ASSAY_TEST Inhibition of Bacterial Growth; detection method Absorption (OD600); MEDIA CAMHB; plate type 384well; NBS; CORNING #3640; time 18 hr
Description: Antibacterial activity against Klebsiella pneumoniae MDR ATCC 70063 (CO-ADD:GN_003); MIC in CAMBH media using NBS plates, by OD(600)
Results with a measured potency or affinity are listed apart.
result_type: Inhibition (%)
// return numeric value only (unit: %, not printed)

The reported value for `COc1c2occc2c(OC)c2c(=O)cc(C)oc12` in terms of Inhibition is 15.74

The reported value for `COc1cc2c(c(OC)c1OC)-c1ccc(OC)c(=O)cc1[C@@H](NC(C)=O)CC2` in terms of Inhibition is 3.13

The reported value for `COc1c2occc2cc2ccc(=O)oc12` in terms of Inhibition is 4.76

The reported value for CC1(C)C(=O)N2c3ccccc3C3(CC(N4C(=O)c5ccccc5C4=O)C(=O)O3)C2N1C(=O)OCc1ccccc1 (stereo not drawn) in terms of Inhibition is -2.04

The reported value for `COC(=O)[C@@H]1[C@H]2C[C@@H]3c4[nH]c5ccccc5c4CCN3C[C@@H]2CC[C@@H]1O` in terms of Inhibition is -5.72

The reported value for CC(C)=CC(=O)OC1C2C(C)C(=O)OC2C(O)C(C)C2C=CC(=O)C21C (stereo not drawn) in terms of Inhibition is 13.7

The reported value for CCC1OC(=O)C(C)C(OC2CC(C)(O)C(O)C(C)O2)C(C)C(O)C(C)(O)CC(C)C(=O)C(C)C(O)C1C (stereo not drawn) in terms of Inhibition is 3.36

The reported value for `C/C=C/c1cc2c(c(=O)o1)C(=O)[C@@H](O)[C@H](C)O2` in terms of Inhibition is -6.98

Further cases:
The reported value for `CCCCCc1cc(O)cc2c1Oc1cc(O)cc(C(=O)CCCC)c1C(=O)O2` in terms of Inhibition is -6.31

The reported value for CC1(C)CC23C4COC(=O)C2CCC1C3CC4=O (stereo not drawn) in terms of Inhibition is -5.19

The reported value for `COc1c2c(cc3c1[C@@H]1Oc4c(ccc(O)c4CC=C(C)C)[C@@H]1CO3)OC(C)(C)C=C2` in terms of Inhibition is -0.46

The reported value for `CCCCCC[C@H]([C@H](C)O)n1cnc2c(N)ncnc21.Cl` in terms of Inhibition is -3.55

The reported value for `COc1c(O)cc2oc3cc(O)c(CC=C(C)C)c(O)c3c(=O)c2c1CC=C(C)C` in terms of Inhibition is -4.57

The reported value for COc1cc(C)c2c(c1C=O)Oc1c(c(C)c(O)c3c1C(O)OC3=O)OC2=O (stereo not drawn) in terms of Inhibition is -0.81

The reported value for CC(=O)C1CCCC(=O)/C=C/C(=O)O1 (stereo not drawn) in terms of Inhibition is -0.08

---

system: Cryptococcus neoformans; details: Concentration 20 uM; ASSAY_TEST Inhibition of Fungal Growth; detection method Resazurin; Absorption (OD600-OD570); plate type 384well; NBS; CORNING #3640
Description: Antifungal activity against Cryptococcus neoformans H99 ATCC 208821 (CO-ADD:FG_002); MIC in YNB media using NBS plates, by Resazurin OD(600-570)
Measured potencies and affinities stand elsewhere.
result_type: Inhibition (%)
// return numeric value only (unit: %, not printed)

Some solved entries appear below for comparison.
The reported value for CC1(C)C(=O)N2c3ccccc3C3(CC(N4C(=O)c5ccccc5C4=O)C(=O)O3)C2N1C(=O)OCc1ccccc1 (centres undefined) in terms of Inhibition is -12.3

The reported value for COc1ccc(C2CC(=O)c3c(O)cc(OC4OC(CO)C(O)C(O)C4OC4OC(C)C(O)C(O)C4O)cc3O2)cc1O (centres undefined) in terms of Inhibition is -13

The reported value for C=C1C(=O)OC2CC(C)C3(O)CCC(=O)C3(C)CC12 (centres undefined) in terms of Inhibition is -16.95

Further cases:
The reported value for `CCCCCCCCCCCCCCCC(=O)O[C@@H]1[C@@H](C)[C@@]2(O)[C@@H](C=C(CO)C[C@]3(O)C(=O)C(C)=C[C@@H]23)[C@H]2[C@]1(OC(C)=O)[C@]2(C)CO` in terms of Inhibition is -11.83

---

tested on: Klebsiella pneumoniae; details: Concentration 20 uM; ASSAY_TEST Inhibition of Bacterial Growth; detection method Absorption (OD600); MEDIA CAMHB; plate type 384well; NBS; CORNING #3640; time 18 hr
Results with a measured potency or affinity are listed apart.
The label condition met is reserved for Inhibition strictly under 4%; condition not met covers values equal to or above it.

Q. Quick check: Inhibition of CC1CC(O)C2C3(C)CCCC2(COC3=O)C12CCC1(CCOC1=O)O2 (centres undefined) under 4%?
A. condition not met

Q. Quick check: Inhibition of `O=c1oc2c(O)c(O)cc3c(=O)oc4c(O)c(O)cc1c4c23` under 4%?
A. condition not met

Q. Quick check: Inhibition of C=C1C(=O)OC2CC3(C)CCCC(C)C3=CC12 (centres undefined) under 4%?
A. condition not met

Q. Quick check: Inhibition of CC1(C)CCCC2(C)C3=C(CCC12)C(=O)OC3 (centres undefined) under 4%?
A. condition not met

Q. Quick check: Inhibition of CCCCCCCCCCCCCCCCCCOCC(O)CO (centres undefined) under 4%?
A. condition met

Q. Quick check: Inhibition of CCC1NC(=O)C(NC(=O)c2ncccc2O)C(C)OC(=O)C(c2ccccc2)NC(=O)C2CC(=O)CCN2C(=O)C(Cc2ccccc2)N(C)C(=O)C2CCCN2C1=O (centres undefined) under 4%?
A. condition not met

Q. Quick check: Inhibition of `CC(=O)O.COc1ccc2c(=O)oc3c(OC)cc(CCN(C)C)c4c(=O)oc1c2c34` under 4%?
A. condition not met

Q. Quick check: Inhibition of COc1ccc(C2CC(=O)c3c(O)cc(OC4OC(CO)C(O)C(O)C4OC4OC(C)C(O)C(O)C4O)cc3O2)cc1O (centres undefined) under 4%?
A. condition met

Now for a further molecule.
Q. Quick check: Inhibition of `C=C1C(=O)O[C@@H]2[C@H]3O[C@]3(C)CC/C=C(\C)CC[C@@H]12` under 4%?
A. condition met

---

Inhibition reference
tested on: Candida albicans; conditions: 20 µM
Description: Antifungal activity against Candida albicans ATCC 90028 (CO-ADD:FG_001); MIC in YNB media using NBS plates, by OD630
Results with a measured potency or affinity are listed apart.
// return numeric value only (unit: %, not printed)

Some solved entries appear below for comparison.
The reported value for COc1cc(C)c2c(c1C=O)Oc1c(c(C)c(O)c3c1C(O)OC3=O)OC2=O (stereo not given) in terms of Inhibition is -4.28

The reported value for `COc1c2c(cc3c1[C@@H]1Oc4c(ccc(O)c4CC=C(C)C)[C@@H]1CO3)OC(C)(C)C=C2` in terms of Inhibition is 5.57

The reported value for `O=C(O)CCCCCCC[C@@H](O)[C@@H](O)CCCCCCO` in terms of Inhibition is 1.24

The reported value for `CC1=C2[C@H]3OC(=O)[C@@H](C)[C@@H]3CC[C@@]2(C)C=C/C1=N\O` in terms of Inhibition is -0.24

API: the following record is the query input.
The reported value for `O=c1oc2cc(O)ccc2c2oc3cc(O)ccc3c12` in terms of Inhibition is 2.68

---

system: Acinetobacter baumannii; assay: Antibacterial activity against Acinetobacter baumannii ATCC 19606 (CO-ADD:GN_034); MIC in CAMBH media using NBS plates, by Resazurin F(560/590); format: functional; conditions: Concentration 20 uM, ASSAY_TEST Inhibition of Bacterial Growth, detection method Resazurin, Fluorescence (ex560/em590), MEDIA CAMHB, plate type 384well, CORNING #3640, time 18 hr
result_type: Inhibition (%)
// return numeric value only (unit: %, not printed)

The reported value for CC1(C)CCCC2(C)C3=C(CCC12)C(=O)OC3 (stereo not given) in terms of Inhibition is -0.35

The reported value for `COc1ccc2c(c1OC)C(=O)O[C@@H]2[C@H]1c2c(cc3c(c2OC)OCO3)CCN1C` in terms of Inhibition is -5.12

The reported value for COc1cc([C@@H]2c3cc4c(cc3[C@@H](OC3OC5CO[C@@H](c6cccs6)OC5C(O)C3O)[C@H]3COC(=O)[C@H]23)OCO4)cc(OC)c1O (stereo not given in full) in terms of Inhibition is -1.54

The reported value for CN1CCc2cc3c(cc2C(=O)Cc2ccc4c(c2C1)OCO4)OCO3.Cl [PROTOPINE HYDROCHLORIDE] in terms of Inhibition is -4.7

The reported value for `CCCCCc1cc(O)cc2c1Oc1cc(O)cc(C(=O)CCCC)c1C(=O)O2` in terms of Inhibition is -18.85

---

test system: Candida albicans; conditions: 20 µM
Results with a measured potency or affinity are listed apart.
Inhibition reference
// return numeric value only (unit: %, not printed)

Some solved entries appear below for comparison.
The reported value for C=C1C(=O)OC2CC(C)C3(O)CCC(=O)C3(C)CC12 (stereo not drawn) in terms of Inhibition is 2.8

The reported value for CC1(C)C(=O)N2c3ccccc3C3(CC(N4C(=O)c5ccccc5C4=O)C(=O)O3)C2N1C(=O)OCc1ccccc1 (stereo not drawn) in terms of Inhibition is 1.22

The reported value for COC(=O)NC1C(C)OC(OC2C/C=C(/C)C3C=CC4C(OC5CC(OC6CCC(OC7CC(O)C(OC8CCC(O)C(C)O8)C(C)O7)C(C)O6)C(OC(C)=O)C(C)O5)C(C)CC(C)C4C3(C)/C(O)=C3/C(=O)OC4(CC(C=O)=CC(O)C4/C=C\2C)C3=O)CC1(C)[N+](=O)[O-] (stereo not drawn) in terms of Inhibition is 4.81

The reported value for `COc1c2occc2c(OC)c2c(=O)cc(C)oc12` in terms of Inhibition is -0.57

The reported value for CC1CC(O)C2C3(C)CCCC2(COC3=O)C12CCC1(CCOC1=O)O2 (stereo not drawn) in terms of Inhibition is -0.89

Further cases:
The reported value for `COC(=O)[C@]1(C)CCC[C@]2(C)C3=CC(=O)[C@@]4(C(C)C)O[C@H]4[C@]3(O)CC[C@@H]12` in terms of Inhibition is 3.2

The reported value for CC(=O)C1CCCC(=O)/C=C/C(=O)O1 (stereo not drawn) in terms of Inhibition is 6.81

The reported value for `COc1ccc2c(c1OC)C(=O)O[C@@H]2[C@H]1c2c(cc3c(c2OC)OCO3)CCN1C` in terms of Inhibition is -0.41
